Below: a set of entries, each annotated with reported Fold change in IC50.
Test system: HIV with mutations in the HIV protease sequence
Assay: Phenotypic fold resistance to protease inhibitors, protease mutations 84A/84L/84C/54M/54L/54V in a background (Examples 8-13)
Format: cell-based, HIV-1
Settings: Table 12, V048869, genotype 10I + 54M + 77I + 90M
Respond with the bare value in fold.

Here's what some known entries look like.
Cc1c(O)cccc1C(=O)N[C@@H](CSc1ccccc1)[C@H](O)CN1C[C@H]2CCCC[C@H]2C[C@H]1C(=O)NC(C)(C)C [Nelfinavir, nelfinavir]	28.5
CC(C)CN(C[C@@H](O)[C@H](Cc1ccccc1)NC(=O)O[C@H]1CCOC1)S(=O)(=O)c1ccc(N)cc1 [Amprenavir, amprenavir]	9.3
CC(C)c1nc(CN(C)C(=O)N[C@H](C(=O)N[C@@H](Cc2ccccc2)C[C@H](O)[C@H](Cc2ccccc2)NC(=O)OCc2cncs2)C(C)C)cs1 [Ritonavir, ritonavir]	20.0
CC(C)(C)NC(=O)[C@@H]1CN(Cc2cccnc2)CCN1C[C@@H](O)C[C@@H](Cc1ccccc1)C(=O)N[C@H]1c2ccccc2C[C@H]1O [Indinavir, indinavir]	7.1

# next compound below
Query: Need Fold change in IC50 of CC(C)(C)NC(=O)[C@@H]1C[C@@H]2CCCC[C@@H]2CN1C[C@@H](O)[C@H](Cc1ccccc1)NC(=O)[C@H](CC(N)=O)NC(=O)c1ccc2ccccc2n1 [Saquinavir, saquinavir] , thanks.
Result: 5.1
